Attribute: abundance fitness
B1: WW domain-containing transcription regulator protein 1, residues 116 to 162; numbered along this chain, Q9GZV5 (parent)
chain: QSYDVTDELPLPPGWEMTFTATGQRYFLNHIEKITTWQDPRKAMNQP

Variants of: B1
Assay: abundance fitness (aPCA) (normalised: wild type 0, dead -1); higher = more abundant; growth selection in yeast, the domain comes from the species named
Conditions: Homo sapiens
assayReadout: abundance fitness

In [3]: df
Out[3]:
    sequencechange  valuereported
 0            A21T         -0.039
 1            P12I         -0.873
 2            P40H         -0.988
 3            H30E         -0.167
 4            M44E           0.03
 5            P13Y         -0.112
 6            F19L         -0.115
 7            R41E          -0.73
 8            T20A         -0.287
 9             L9E         -0.028
10             D7A         -0.049
11            E16Q         -0.035
12            W37E         -0.244
13            T20G         -0.381
14            N45M         -0.023
15            W37H         -0.402
16            P13G         -0.136
17            H30S         -0.091
18            Q38I          0.005
19            K42C         -0.097
20            E16R         -0.365
21             D4P         -0.071
